# ASSAYED_TARGET: T1, ECF16_973
# T1 chain: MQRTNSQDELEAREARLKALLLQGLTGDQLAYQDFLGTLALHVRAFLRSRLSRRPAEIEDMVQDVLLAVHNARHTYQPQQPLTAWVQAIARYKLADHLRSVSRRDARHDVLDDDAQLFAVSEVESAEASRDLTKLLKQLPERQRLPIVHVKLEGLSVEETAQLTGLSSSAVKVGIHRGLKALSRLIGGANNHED
Recorded fold repression, one value per entry.
PROPERTY: fold repression

AS37_2513 (protein) MSSAPATKEEVDFALKVRRALDERAASLPDATTDRLAAARRAALARKKPDAAIVLVPALAGSAGTLELRPPGEPRKSLARRLARAWPLALLLAGLIGIAYWEDMQRTAELADIDAAMLSDNLPLTAYLDHGFNAYLSHTH :: 3.54
AS16_973 (protein) MKTDDLIALLAAGEGPVPRHAVGRRMAVAALGGLTAALLLTITLYGVRSDITEVAQTPLFWGKVAFPTSLALIGLWLTSRLARPGGKGAAGWKMLGLPLLLVWCGAAVSIAGAPVDARADLLFGRTWRTCALNIALLSVPAFVTVFWALKGLAPTRLRLAGAAGGLLAGSSATVAYCLHCPEMGVPFWGVWYVLGMLVPTVLGAWWGPRMLRW :: 58.6
AS33_375 (protein) MMALSKKMLEQEPSEIELLLPWHAAGTLNARDARRVEDALARDPELAKQYAAIRGEYEETIHLNESLGAPSARAMQKLFGAIDAEPARETGSLPLSARIATFFASLSPRTLAWSASLGAVALVLQAGIIGAVLMKTQPTTFQTASLSTSAPITRELGAAVAPARALVRFTPEARVADITALLDSYQASIIGDAKGGMFRLQFDKAMSQDELASLLGRMQREKFVNLAVAAP :: 9.87
AS30_35 (protein) MDKRLQQLREEYKNVQIPKELDIIVEKALQQEPKKKRIVMWPTSAAIAAAILFTALVNINPDAAQAMSKIPVIGKIVKAITFIEIKEEKDQSSIDVKTPALSGLSNKELENSINEKYLKESQQLYKEFIQSTSKNKKGHLSIYSDYETVTDTPDLLSIRRNIETTQASSYTQSRYITIDKKNDILLTLKSLFKDERYIKVISQNIKEQMKQQMKEDPNKIYWLTDEDAEPFKTILPDQTFYITEDHKLVISFDEYEVAPGYMGVTEFTIPTGVISNLLVGERYIR :: 1.73
AS15_436 (protein) MAQSTEPKASPQEATAKGGDNTKGKSRKELQQQIDENLRRVYEEALVQEVPDRFAMLLDQLRQKGTGK :: 3.01
AS35_3582 (protein) MNPQKHSASVAEEQMLAHFRAHAPQQPAPALDQAILAAARRQAAHVEPARSWWRRWLEASRRPRWQAAFASLLGVALVLGLVSHNVLDDAERQARPEVAFSDVPLRDGVAGAAAAKRAMRAPAAPAPLSGEMSEPPALLASYASSGEAPQLMAEAAPPAPAALADRPPAQAAQQAKVQAALAGDFVAQARGKAVAVKPEVLDEALGAVLALREQGKTEQAATQLAELQKRFPGENLVERLERLATIAASARKRP :: 3.39
AS25_1645 (protein) MNESFSQRQTDGDRRRGGDLEMKKNHTSHQHHTDSETPMGHNFEQFQRLSAYFDGEATPAERKEIQHLLDTDPQVKQQYQQLRQLKQALQLLPIPTSISAQYLGQRVLARLRRSQLRTLSLWGSGAIAALFVAGVMGQMPRLNFDRFAKNDPDQQPTAALVETSPQGEEALVVALNRPVLQIPKLATTESP :: 5.41
AS33_423 (protein) MMAMSNTMPDPREPGDVEALLPWYAAGTLNARDARRVADALDRDPALARQYAVILEEYASTIELNESLGAPSSRAMQKLFAAIDAEPARAPGAGQGLGARFAGFFAGLSPKALAWSASVAGLALLLQAGLIGALLTWPHAAPVQTAAYQPQREVARAPASSPAPATVSPPAAAMADRAADAGKSTPPMVMAERSGGPVVRSLAPQSGPRVLVKFAPEARASEIAALLDQYNAVVVDSSRGGLFRLQFGTQSLSKQDQETLIGRLQKEPVVSVVLSAP :: 14.6
